These data points were gathered from paper PMC9775652.

- method.description: Pharmacokinetic study of ginsenosides in healthy humans after repeated oral RGE with or without LAB
- Type: in vivo, human
- reported.conditions: male, in vivo; RGE + LAB group; human plasma, oral 14 days; mean ± SD, n = 5; read-out: Tmax
measure: Tmax (h)
Answer in h, number only, no unit symbol.

(Q) Which Tmax value is on record for CC(C)=CCC[C@](C)(O)[C@H]1CC[C@]2(C)[C@@H]1[C@H](O)C[C@@H]1[C@@]3(C)CC[C@H](O[C@@H]4O[C@H](CO)[C@@H](O)[C@H](O)[C@H]4O)C(C)(C)[C@@H]3CC[C@]12C [GRh2, ginsenoside Rh2] ?
(A) 10.6
